# measurement notes: log k′ (degree of lipophilic character) by gradient HPLC
# Type: physicochemical
# settings: XTerra MS C18 column; acetonitrile/pH6.8 buffer gradient 5:95-95:5/20 min
Overview of recorded log k′ for various compounds

compound	log k′
COC(=O)NC(C)(C)/C=C/n1ncc(C(=O)N[C@H]2C3CC4CC2C[C@](CO)(C4)C3)c1OC(C)C [Compound I-23]	0.864
COC(=O)NC(C)(C)/C=C/n1ncc(C(=O)NC23CCC(C(N)=O)(CC2)C3)c1OCC(C)C [Compound I-13]	0.822
CC(=O)NC(C)(C)/C=C/n1ncc(C(=O)N[C@H]2C3CCCC2C[C@@H](CO)C3)c1OCC(C)C [Compound I-43]	0.851
Cc1nnc(C(C)(C)/C=C/n2ncc(C(=O)N[C@H]3C4CC5CC3C[C@](OC(N)=O)(C5)C4)c2OCC(C)C)o1 [Compound I-8]	0.883
CC(=O)NC(C)(C)/C=C/n1ncc(C(=O)N[C@H]2C3CCCC2C[C@@H](C(N)=O)C3)c1OCC(C)C [Compound I-42]	0.805
CCCC(=O)NC(C)(C)/C=C/n1ncc(C(=O)N[C@H]2C3CC4CC2C[C@](O)(C4)C3)c1OCC(C)C [Compound I-34]	0.877
COC(=O)NC(C)(C)/C=C/n1ncc(C(=O)N[C@H]2C3CCCC2C[C@@H](C#N)C3)c1OCC(C)C [Compound I-33]	0.955
